This collection of values is drawn from ChEMBL document CHEMBL1201862.

Tested on: SK-MEL-28
Assay: NCI tumour cell line growth inhibition, 48 h
Active and inactive are the calls of the source. No stated cut-off is given here; in the data, active = GI50 up to about 1.1 µM and inactive = higher.
valueKind: GI50

# GI50 (compound: CC1=NN(C(=O)c2ccc(Cl)cc2)C(=O)/C1=C/c1cccc([N+](=O)[O-])c1 ) is > 100 µM (inactive)

# GI50 (compound: COc1ccc(C2=C(Cl)c3cc(OC)c(OC)cc3C2)cc1OC ) is > 100 µM (inactive)

# GI50 (compound: COc1cc(/C=C2\CCc3ccccc3C2=O)ccc1O ) is 21.1 µM (inactive)

# GI50 (compound: COC(=O)c1ccccc1C1CN=NC12Cc1c(C)cc(C)cc1C2=O (configuration not stated) ) is > 100 µM (inactive)

# GI50 (compound: O=C1c2cccc3cccc(c23)C(=O)N1CCN(CCO)CCO ) is 35.8 µM (inactive)

# GI50 (compound: COc1ccc2c(c1)C(N)=C(c1ccccc1)C2=O ) is > 100 µM (inactive)

# GI50 (compound: O=C(O)CCC(NC(=O)c1ccc(Nc2cnc3cc(C(F)(F)F)ccc3n2)cc1)C(=O)O (configuration not stated) ) is > 100 µM (inactive)

# GI50 (compound: CN(C)CCNc1c([N+](=O)[O-])cc2c3c(cccc13)C(=O)N(CCN(C)C)C2=O ) is 1.67 µM (inactive)

# GI50 (compound: CC(C)(C)OC(=O)CCC1NC(=O)[C@@H]2Cc3c([nH]c4ccccc34)C(c3ccccc3)N2C1=O (some centres not stated) ) is 44.5 µM (inactive)

# GI50 (compound: COc1nc(N)c(NC(C)=O)c(=O)n1C ) is > 100 µM (inactive)

# GI50 (compound: CCN(CC)CCCNc1nncc2c(C)c3[nH]c4ccccc4c3cc12 ) is 1.24 µM (inactive)

# GI50 (compound: COc1c(O)cc2ccnc3c2c1N(C)C=C3 ) is > 100 µM (inactive)

# GI50 (compound: CCO/C=C1\SC(=S)N(c2ccc(OCC)cc2)C1=O ) is > 100 µM (inactive)

# GI50 (compound: Cc1ccc(C(=O)/C=C2\Nc3c(c(=O)oc4ccccc34)N=C2NC23CC4CC(CC(C4)C2)C3)cc1 ) is > 100 µM (inactive)

# GI50 (compound: C=C(c1ccccc1)[C@@]1(O)CCCC[C@H]1NC(c1ccccc1)c1ccccc1 ) is 15.5 µM (inactive)

# GI50 (compound: Cc1ccc2nc(N/N=C/c3ccc(C)s3)cc(C)c2c1 ) is 6.76 µM (inactive)

# GI50 (compound: O=P(c1ccccc1)(c1ccccc1)C1CC=C(c2ccccc2)C2(CCCC2)C1 (configuration not stated) ) is 40.1 µM (inactive)

# GI50 (compound: CC1(C)C(=O)N(CCCCCCN2C(=O)C(C)(C)c3ccccc32)c2ccccc21 ) is 47.2 µM (inactive)

# GI50 (compound: NC(Cc1ccc(B(O)O)cc1)C(=O)NC(CO)CO (configuration not stated) ) is > 100 µM (inactive)

# GI50 (compound: Cc1nc(-n2nc(-c3ccccc3)cc2-c2ccccc2)sc1C(=O)/C=C/c1ccc(Cl)c(Cl)c1 ) is 31.3 µM (inactive)

# GI50 (compound: CCOC(=O)C1S/C(=N\c2ccc(C)c(C)c2)N=C1C (configuration not stated) ) is > 100 µM (inactive)

# GI50 (compound: C=C(Cl)C(Cl)(CBr)CCC(Cl)C(C)C (configuration not stated) ) is 1.87 µM (inactive)
